All values here come from patent US8987314B2.

# system.under.test: hepatic lipase (HL) (Homo sapiens (Human), UniProt P11150)
# Sequence (P11150 23-499, species assumed): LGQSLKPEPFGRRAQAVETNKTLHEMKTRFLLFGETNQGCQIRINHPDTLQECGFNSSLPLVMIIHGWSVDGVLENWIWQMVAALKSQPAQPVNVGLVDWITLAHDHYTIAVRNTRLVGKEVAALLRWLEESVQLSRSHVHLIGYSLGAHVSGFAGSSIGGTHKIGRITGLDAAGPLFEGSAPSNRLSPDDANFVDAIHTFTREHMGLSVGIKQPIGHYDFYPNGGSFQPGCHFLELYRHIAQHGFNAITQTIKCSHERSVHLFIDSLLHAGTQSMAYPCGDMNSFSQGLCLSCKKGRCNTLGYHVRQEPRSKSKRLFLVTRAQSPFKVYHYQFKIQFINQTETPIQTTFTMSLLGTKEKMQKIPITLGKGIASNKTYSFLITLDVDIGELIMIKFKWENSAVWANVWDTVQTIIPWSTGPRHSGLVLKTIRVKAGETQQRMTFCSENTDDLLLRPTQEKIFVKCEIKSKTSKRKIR
# test.method.notes: HL assay: hepatic lipase activity with fluorescent substrate A10070 in DMPG vesicles
# Format: biochemical
# Method: Endothelial lipase (EL) and hepatic lipase (HL) activities were measured using a fluorescent substrate, A10070, (Invitrogen, CA) doped into an artificial vesicle containing DMPG (Avanti Polar Lipids) as the excipient. […] The enzymatic assay was measured using 384-well white Optiplates. […] The reaction rates were measured on a Gemini plate reader with an excitation wavelength of 490 nm and an emission wavelength of 530 nm. […]
Please respond with reported pIC50 for every item in the list.
Please express pIC50 as -log10 of the molar concentration.

Recorded pIC50 for CC(C)S(=O)(=O)C(C(=O)NCCS(N)(=O)=O)c1nc2cc(-c3ccc(F)nc3)ccc2s1 (centres unmarked) [Example B312] , please?
6.82

Please do the same for CN(C)C(=O)c1cccc(-c2ccc3nc(C(C(=O)NCCS(N)(=O)=O)S(=O)(=O)CCC(F)(F)F)sc3c2)c1 (centres unmarked) [Example B340] as well.
7.10

What would you report for CC(C)CS(=O)(=O)C(C(=O)NCCS(N)(=O)=O)c1nc2ccc(-c3cnn(CCN4CCOCC4)c3)cc2s1 (centres unmarked) [Example B123] ?
6.40

Another compound to check: Cc1nnc(CNC(=O)C(c2nc3cc(C)c(-c4ccc(N5CCNCC5)cc4)cc3s2)S(C)(=O)=O)o1 (centres unmarked) [Example B84]
6.46

What would you report for COC[C@H](C)NC(=O)c1ccc(-c2ccc3nc(C(C(=O)NCCS(N)(=O)=O)S(=O)(=O)Cc4ccc(OC(F)(F)F)cc4)sc3c2)cc1 (some centres unmarked) [Example B250] ?
7.42

Thanks! And COCCS(=O)(=O)C(C(=O)NCCS(N)(=O)=O)c1nc2cc(-c3ccc(F)nc3)ccc2s1 (centres unmarked) [Example B308] ?
6.71

Request: CS(=O)(=O)C(C(=O)NCCS(N)(=O)=O)c1nc2ccc(-c3ccc(C(=O)N4CCC(O)CC4)cc3)cc2s1 (centres unmarked) [Example B177]
6.31

Same again, this time with COCCS(=O)(=O)C(C(=O)NCc1nnc(C)o1)c1nc2ccc(-c3ccc(C(=O)N4CC(C)(O)C4)cc3)cc2s1 (centres unmarked) [Example B265]
6.20

Cool, now CC(=O)Nc1ccc(-c2ccc3nc(C(C(=O)NCCS(N)(=O)=O)S(=O)(=O)Cc4ccccc4)sc3c2)cc1 (centres unmarked) [Example B44]
6.83

Then what about the compound NS(=O)(=O)CCNC(=O)C(c1nc2ccc(-c3ccccc3F)cc2s1)S(=O)(=O)Cc1ccc(OC(F)(F)F)cc1 (centres unmarked) [Example B365] ?
8.68

Then what about the compound CS(=O)(=O)C(C(=O)NCc1ccccc1S(N)(=O)=O)c1nc2ccc(-c3ccc(N4CCCCC4)cc3)cc2s1 (centres unmarked) [Example B275] ?
6.66

Then this compound: CC(C)Oc1ccc(-c2ccc3nc(C(C(=O)NCCS(N)(=O)=O)S(C)(=O)=O)sc3c2)cc1Cl (centres unmarked) [Example B217]
8.44

###

# system.under.test: Endothelial lipase (EL) (Homo sapiens (Human), UniProt Q9Y5X9)
# Sequence (Q9Y5X9 21-500): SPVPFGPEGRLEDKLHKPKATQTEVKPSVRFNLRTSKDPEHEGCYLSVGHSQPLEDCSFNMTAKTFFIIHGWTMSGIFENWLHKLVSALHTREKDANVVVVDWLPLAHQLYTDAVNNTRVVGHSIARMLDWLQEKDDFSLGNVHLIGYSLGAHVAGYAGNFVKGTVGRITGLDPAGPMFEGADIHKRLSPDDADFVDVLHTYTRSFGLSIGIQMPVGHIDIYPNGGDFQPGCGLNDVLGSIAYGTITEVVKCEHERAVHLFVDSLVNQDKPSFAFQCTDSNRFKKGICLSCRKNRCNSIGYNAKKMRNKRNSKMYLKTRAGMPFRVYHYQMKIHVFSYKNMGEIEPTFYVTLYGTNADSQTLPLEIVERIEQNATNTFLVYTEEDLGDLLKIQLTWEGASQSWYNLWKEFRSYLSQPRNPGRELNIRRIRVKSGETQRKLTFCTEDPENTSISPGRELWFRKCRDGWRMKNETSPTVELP
# test.method.notes: EL assay: endothelial lipase activity with fluorescent substrate A10070 in DMPG vesicles
# Format: biochemical
endpoint: IC50 (nM)
Give the quantity in nM, number only.

Observed IC50 on Endothelial lipase (EL) (Homo sapiens (Human), UniProt Q9Y5X9) for Cc1nnc(CNC(=O)C(c2nc3cc(C)c(-c4ccc5c(c4)CCC(=O)N5)cc3s2)S(C)(=O)=O)o1 (stereo not drawn) [Example B85] , please.
11

Request: COCCS(=O)(=O)C(C(=O)NCc1nnc(C)o1)c1nc2cc(F)c(-c3ccc(C(=O)N4CC(C)(O)C4)cc3)cc2s1 (stereo not drawn) [Example B260]
67

CC1(O)CN(C(=O)c2ccc(-c3ccc4nc(C(C(=O)NCCS(N)(=O)=O)S(C)(=O)=O)sc4c3)cc2)C1 (stereo not drawn) [Example B318] ?
1.8

And then NS(=O)(=O)CCNC(=O)C(c1nc2ccc(-c3ccc(C(=O)N4CCC(F)(F)C4)cc3)cc2s1)S(=O)(=O)Cc1ccc(OC(F)(F)F)cc1 (stereo not drawn) [Example B324] , what is it?
9.1

Subsequent entry: CS(=O)(=O)C(C(=O)NCCS(N)(=O)=O)c1nc2ccc(-c3cc(F)cc(Cl)c3)cc2s1 (stereo not drawn) [Example B209]
8

Same question, CS(=O)(=O)C(C(=O)NCCS(N)(=O)=O)c1nc2cc(-c3cccnc3F)ccc2s1 (stereo not drawn) [Example B383] this time
0.7

Please answer likewise for COc1cc(-c2ccc3sc(C(C(=O)NCCS(N)(=O)=O)S(C)(=O)=O)nc3c2)ccn1 (stereo not drawn) [Example B88]
0.5

Then this compound: CC(F)(F)CNC(=O)c1cccc(-c2ccc3nc(C(C(=O)NCCS(N)(=O)=O)S(=O)(=O)CCC(F)(F)F)sc3c2)c1 (stereo not drawn) [Example B339]
9.7

Also, COCCS(=O)(=O)C(C(=O)NCc1nnc(C)o1)c1nc2cc(F)c(-c3ccc(C(=O)N4CCCC4)cc3)cc2s1 (stereo not drawn) [Example B262] please.
102

Another compound to check: COCCN(C)C(=O)c1ccc(-c2ccc3nc(C(C(=O)NCCS(N)(=O)=O)S(=O)(=O)Cc4ccc(OC(F)(F)F)cc4)sc3c2)cc1 (stereo not drawn) [Example B289]
3.1

Entry to check: COCCn1cc(-c2ccc3nc(C(C(=O)NCCS(N)(=O)=O)S(=O)(=O)Cc4ccc(F)cc4)sc3c2)cn1 (stereo not drawn) [Example B163]
28

Param item: NS(=O)(=O)CCNC(=O)C(c1nc2ccc(-c3ccc(C(=O)N4CC(F)(F)C4)cc3)cc2s1)S(=O)(=O)Cc1ccc(C(F)(F)F)cc1 (stereo not drawn) [Example B357]
15

Queued: Cc1cc2nc(C(C(=O)NCCS(N)(=O)=O)S(C)(=O)=O)sc2cc1-c1ccc(C(=O)O)cc1 (stereo not drawn) [Example B326]
1.6

Continue with CC1(O)CN(C(=O)c2ccc(-c3ccc4nc(C(C(=O)NCCS(N)(=O)=O)S(=O)(=O)Cc5ccc(F)cc5)sc4c3)cc2)C1 (stereo not drawn) [Example B353]
2

Same read-out for CC(C)(O)Cn1ccc(-c2ccc3sc(C(C(=O)NCCS(N)(=O)=O)S(C)(=O)=O)nc3c2)cc1=O (stereo not drawn) [Example B389] ?
2

Do the same for COCCNC(=O)c1cccc(-c2ccc3nc(C(C(=O)NCCS(N)(=O)=O)S(=O)(=O)CCC(F)(F)F)sc3c2)c1 (stereo not drawn) [Example B179] please
24

Okay, and CS(=O)(=O)C(C(=O)NCCS(N)(=O)=O)c1nc2ccc(-c3ccc(C(=O)N4CC[C@@H](O)C4)cc3)cc2s1 (stereo partly drawn) [Example B329] ?
1.8

COCCS(=O)(=O)C(C(=O)NCCS(N)(=O)=O)c1nc2ccc(-c3ccc(F)nc3)cc2s1 (stereo not drawn) [Example B281] , same question.
17.9

Next up: NS(=O)(=O)CCNC(=O)C(c1nc2ccc(-c3ccc(CCO)cc3)cc2s1)S(=O)(=O)Cc1ccc(F)cc1 (stereo not drawn) [Example B240]
25.7

# repeat for NS(=O)(=O)CCNC(=O)C(c1nc2ccc(-c3cccc(C(=O)N4CCC(O)CC4)c3)cc2s1)S(=O)(=O)CCC(F)(F)F (stereo not drawn) [Example B332]
1.5
